Test system: Candida albicans
experiment: Antifungal activity against Candida albicans NCIM 3557 assessed as inhibition of 50% germ tube formation
Type: functional
measure-name: Concentration for 50% inhibition of germ tube formation (IC50)

{"compound": "CC1=CCC[C@@H]2[C@@](C)(CCC3=CC(=O)O[C@@H]3O)[C@H](C)CC[C@@]12C", "result": "25.14 µM"}
{"compound": "C[C@@H]1CC[C@]2(C)[C@H](CC[C@@H]3O[C@@]32C)[C@@]1(C)CCC1=CC(=O)O[C@@H]1O", "result": "191.6 µM"}
{"compound": "CC(=O)OC1OC(=O)C=C1CC[C@@]1(C)[C@H](C)CC[C@@]2(C)C(C)=CCC[C@H]12 (mixture of isomers)", "result": "177.8 µM"}
{"compound": "CC1=CCC[C@@H]2[C@@](C)(CCC3=CC(=O)OC3OC(=O)OC(C)(C)C)[C@H](C)CC[C@@]12C (mixture of isomers)", "result": "153.1 µM"}

---

System: Neurospora crassa
experiment: Antifungal activity against Neurospora crassa NCIM 870 after 24 to 48 hrs by microbroth dilution method
Format: functional
Measured MIC90 accompanies every entry in the list below.

{"molecule": "C[C@@H]1CC[C@]2(C)[C@H](CC[C@@H]3O[C@@]32C)[C@@]1(C)CCC1=CC(=O)O[C@@H]1O", "measured-on": "Neurospora crassa", "MIC90": "> 600 µM"}
{"molecule": "CC(=O)OC1OC(=O)C=C1CC[C@@]1(C)[C@H](C)CC[C@@]2(C)C(C)=CCC[C@H]12 (mixture of isomers)", "measured-on": "Neurospora crassa", "MIC90": "> 600 µM"}
{"molecule": "CC1=CCC[C@@H]2[C@@](C)(CCC3=CC(=O)O[C@@H]3O)[C@H](C)CC[C@@]12C", "measured-on": "Neurospora crassa", "MIC90": "201 µM"}
{"molecule": "CC1=CCC[C@@H]2[C@@](C)(CCC3=CC(=O)OC3OC(=O)OC(C)(C)C)[C@H](C)CC[C@@]12C (mixture of isomers)", "measured-on": "Neurospora crassa", "MIC90": "> 600 µM"}

---

Measured MIC90 accompanies every entry in the list below.
System: Fusarium oxysporum
experiment: Antifungal activity against Fusarium oxysporum NCIM 1043 after 24 to 48 hrs by microbroth dilution method
Format: functional

{"compound": "C[C@@H]1CC[C@]2(C)[C@H](CC[C@@H]3O[C@@]32C)[C@@]1(C)CCC1=CC(=O)O[C@@H]1O", "MIC90": "> 600 µM"}
{"compound": "CC1=CCC[C@@H]2[C@@](C)(CCC3=CC(=O)OC3OC(=O)OC(C)(C)C)[C@H](C)CC[C@@]12C (mixture of isomers)", "MIC90": "> 600 µM"}
{"compound": "CC(=O)OC1OC(=O)C=C1CC[C@@]1(C)[C@H](C)CC[C@@]2(C)C(C)=CCC[C@H]12 (mixture of isomers)", "MIC90": "> 600 µM"}
{"compound": "CC1=CCC[C@@H]2[C@@](C)(CCC3=CC(=O)O[C@@H]3O)[C@H](C)CC[C@@]12C", "MIC90": "805 µM"}

---

System: Candida albicans
experiment: Antifungal activity against Candida albicans NCIM 3557 after 24 to 48 hrs by microbroth dilution method
Type: functional

{"compound": "CC1=CCC[C@@H]2[C@@](C)(CCC3=CC(=O)O[C@@H]3O)[C@H](C)CC[C@@]12C", "MIC90": "50.3 µM"}
{"compound": "CC(=O)OC1OC(=O)C=C1CC[C@@]1(C)[C@H](C)CC[C@@]2(C)C(C)=CCC[C@H]12 (mixture of isomers)", "MIC90": "> 600 µM"}
{"compound": "C[C@@H]1CC[C@]2(C)[C@H](CC[C@@H]3O[C@@]32C)[C@@]1(C)CCC1=CC(=O)O[C@@H]1O", "MIC90": "> 600 µM"}
{"compound": "CC1=CCC[C@@H]2[C@@](C)(CCC3=CC(=O)OC3OC(=O)OC(C)(C)C)[C@H](C)CC[C@@]12C (mixture of isomers)", "MIC90": "> 600 µM"}

---

Test system: Aspergillus fumigatus
experiment: Antifungal activity against Aspergillus fumigatus NCIM 902 after 24 to 48 hrs by microbroth dilution method
Assay type: functional
Measured MIC90 accompanies every entry in the list below.

{"compound": "C[C@@H]1CC[C@]2(C)[C@H](CC[C@@H]3O[C@@]32C)[C@@]1(C)CCC1=CC(=O)O[C@@H]1O", "MIC90": "> 600 µM"}
{"compound": "CC1=CCC[C@@H]2[C@@](C)(CCC3=CC(=O)O[C@@H]3O)[C@H](C)CC[C@@]12C", "MIC90": "805 µM"}
{"compound": "CC(=O)OC1OC(=O)C=C1CC[C@@]1(C)[C@H](C)CC[C@@]2(C)C(C)=CCC[C@H]12 (mixture of isomers)", "MIC90": "> 600 µM"}
{"compound": "CC1=CCC[C@@H]2[C@@](C)(CCC3=CC(=O)OC3OC(=O)OC(C)(C)C)[C@H](C)CC[C@@]12C (mixture of isomers)", "MIC90": "> 600 µM"}

---

Test system: Nakaseomyces glabratus
experiment: Antifungal activity against Candida glabrata NCIM 3237 after 24 to 48 hrs by microbroth dilution method
Assay type: functional
Measured MIC90 accompanies every entry in the list below.

{"compound": "CC(=O)OC1OC(=O)C=C1CC[C@@]1(C)[C@H](C)CC[C@@]2(C)C(C)=CCC[C@H]12 (mixture of isomers)", "MIC90": "> 600 µM"}
{"compound": "CC1=CCC[C@@H]2[C@@](C)(CCC3=CC(=O)O[C@@H]3O)[C@H](C)CC[C@@]12C", "MIC90": "805 µM"}
{"compound": "C[C@@H]1CC[C@]2(C)[C@H](CC[C@@H]3O[C@@]32C)[C@@]1(C)CCC1=CC(=O)O[C@@H]1O", "MIC90": "> 600 µM"}
{"compound": "CC1=CCC[C@@H]2[C@@](C)(CCC3=CC(=O)OC3OC(=O)OC(C)(C)C)[C@H](C)CC[C@@]12C (mixture of isomers)", "MIC90": "> 600 µM"}
